Reference source: patent US20140206681A1

# Tested on: HeLa cells
# methodDescription: [3H]Adenosine uptake functional cellular assay
# Type: cell-based
# appliedConditions: Homo sapiens, HeLa, accumulation of [3H]adenosine into HeLa cells; compound range 10 μM to […]; read-out: Adenosine uptake inhibition IC50
# Procedure: Compounds are also screened in an adenosine uptake functional cellular assay using the protocol described below. The adenosine uptake inhibition assay may be used to identify compounds with the potential for a negative cardiovascular side effect. Adenosine uptake activity was determined by monitoring the accumulation of tritiated adenosine into HeLa cells (ATCC catalog # CCL-2) using a PMT-based radiometric detection instrument. […]
pIC50: −log10 of the molar value.
Classify as follows. Reported pIC50 greater than or equal to 6: 1 (yes). Reported pIC50 below: 0 (no).

[[record]]
inputsmiles = "Nc1ncc(C(F)(F)F)n2c([C@@H]3CC[C@H]4CCC(=O)N4C3)nc(-c3ccc(C(=O)Nc4cc(C5CC5)ccn4)cc3F)c12"
testsystem = "HeLa cells"
assignedcategory = "1 (yes)"


I'd appreciate it if you could say whether Nc1ncc(F)n2c([C@@H]3CC[C@H]4CCC(=O)N4C3)nc(-c3ccc(C(=O)Nc4cc(C5CC5)ccn4)cc3)c12 has pIC50 at least equal to 6.
1 (yes)

How about Nc1nccn2c([C@@H]3CC[C@H]4CCC(=O)N4C3)nc(-c3ccc(C(=O)Nc4cc(C5CC5)ccn4)cc3F)c12 ?
1 (yes)

Then what about the compound CCOc1cc(C(=O)Nc2cc(C(F)(F)F)n(C)n2)ccc1-c1nc([C@@H]2CC[C@H]3CCC(=O)N3C2)n2c(C)cnc(N)c12 ?
0 (no)

Nc1nccn2c([C@H]3CC[C@H]4CNCC(=O)N4C3)nc(-c3ccc(C(=O)Nc4cc(C(F)(F)F)ccn4)cc3)c12 ?
0 (no)

// next record COc1cc(C(=O)Nc2ncc(C)s2)ccc1-c1nc([C@@H]2CC[C@H]3CCC(=O)N3C2)n2ccnc(N)c12
0 (no)

Another compound: C[C@H]1OC(=O)N2C[C@H](c3nc(-c4ccc(C(=O)Nc5cc(C(F)(F)F)ccn5)cc4F)c4c(N)nccn34)CC[C@@H]12
1 (yes)

Here is the next compound: CCOc1cc(C(=O)Nc2cc(C(F)(F)F)n(C)n2)ccc1-c1nc([C@@H]2CC[C@H]3CCC(=O)N3C2)n2c(Cl)cnc(N)c12
0 (no)

What about this compound? Cc1nsc(NC(=O)c2ccc(-c3nc([C@@H]4CC[C@H]5CCC(=O)N5C4)n4ccnc(N)c34)cc2)n1
0 (no)

Try the compound CNc1nccn2c([C@@H]3CC[C@H]4CCC(=O)N4C3)nc(-c3ccc(C(=O)Nc4cc(C(F)(F)F)ccn4)cc3)c12
1 (yes)

Could you do the same for Nc1nccn2c([C@@H]3CC[C@H]4CCC(=O)N4C3)nc(-c3ccc(C(=O)Nc4cc(C5CC5)ccn4)cc3)c12 , please?
1 (yes)

----------
# Tested on: HeLa cells
# methodDescription: [3H]Adenosine uptake functional cellular assay
# Assay type: cell-based
# appliedConditions: Homo sapiens, HeLa, accumulation of [3H]adenosine into HeLa cells; compound range 10 μM to […]; read-out: Adenosine uptake inhibition IC50
readoutType: pIC50
# pIC50 = -log10(concentration in molar units)

Use the examples below as a reference point.
[[record]]
molecule = "Cn1nc(NC(=O)c2ccc(-c3nc([C@@H]4CC[C@H]5CCC(=O)N5C4)n4ccnc(N)c34)c(OC3CC3)c2)cc1C(F)(F)F"
testsystem = "HeLa cells"
readouttype = "pIC50"
measuredvalue = 5.30

[[record]]
molecule = "COC(C)c1ccnc(NC(=O)c2ccc(-c3nc([C@@H]4CC[C@H]5CCC(=O)N5C4)n4ccnc(N)c34)cc2)c1 (stereo partly shown)"
testsystem = "HeLa cells"
readouttype = "pIC50"
measuredvalue = 6.74

[[record]]
molecule = "CCOc1cc(C(=O)Nc2cc(C(F)(F)F)ccn2)c(F)cc1-c1nc([C@@H]2CC[C@H]3CCC(=O)N3C2)n2ccnc(N)c12"
testsystem = "HeLa cells"
readouttype = "pIC50"
measuredvalue = 5.95

[[record]]
molecule = "CN1CC[C@@H]2CC[C@@H](c3nc(-c4ccc(C(=O)Nc5cc(C(F)(F)F)ccn5)cc4)c4c(N)nccn34)CN2C1=O"
testsystem = "HeLa cells"
readouttype = "pIC50"
measuredvalue = 6.91

[[record]]
molecule = "Cc1cc(C(=O)Nc2cc(C(F)(F)F)ccn2)c(F)cc1-c1nc([C@@H]2CC[C@H]3CCC(=O)N3C2)n2ccnc(N)c12"
testsystem = "HeLa cells"
readouttype = "pIC50"
measuredvalue = 6.60


Kindly review the next molecule as well.
Consider the molecule CCn1nc(NC(=O)c2ccc(-c3nc([C@@H]4CC[C@H]5CCC(=O)N5C4)n4ccnc(N)c34)cc2)cc1C(F)(F)F and give its measured pIC50.
5.27
